In this section we review reported IC50 values for a set of compounds.
assay: Antiproliferative activity against human CRL-2351 cells incubated for 5 days by SRB assay; format: functional, cell-based; conditions: CRL-2351, 120 h

Value of IC50 reported for the compound `CN(C)CCN1C(=O)C(c2cc(C(C)(C)C)ccc2O)(c2cc(C(C)(C)C)ccc2O)c2ccccc21` is 2700 nM

Value of IC50 reported for the compound `CN1CCN(CCOc2ccc(C(C)(C)C)cc2C2(c3cc(C(C)(C)C)ccc3OCCN3CCN(C)CC3)C(=O)N(CCN3CCN(C)CC3)c3ccccc32)CC1` is 600 nM

Value of IC50 reported for the compound `COCCOc1ccc(C(C)(C)C)cc1C1(c2cc(C(C)(C)C)ccc2OCCOC)C(=O)Nc2ccccc21` is 4600 nM

Value of IC50 reported for the compound CC(C)(C)c1ccc(O)c(C2(c3cc(C(C)(C)C)ccc3OCCN3CCCCC3)C(=O)Nc3ccccc32)c1 (centres undefined) is 700 nM

====

In this section we review reported fold change (FC) values for a set of compounds.
molecular target: Interferon-induced, double-stranded RNA-activated protein kinase (Homo sapiens); assay: Induction of eIF2alpha phosphorylation (unknown origin) assessed as fold increase in ATF-4 stimulation at 40 uM by dual luciferase reporter assay; details: filed as activator

These solved cases illustrate the format of a correct answer.
* CC(C)(C)c1ccc(OCCN2CCNCC2)c(C2(c3cc(C(C)(C)C)ccc3OCCN3CCNCC3)C(=O)Nc3ccccc32)c1 | 11.4
* CN(C)CCOc1ccc(C(C)(C)C)cc1C1(c2cc(C(C)(C)C)ccc2OCCN(C)C)C(=O)Nc2ccccc21 | 1.34
* CC(C)(C)c1ccc(O)c(C2(c3cc(C(C)(C)C)ccc3OCCO)C(=O)Nc3ccccc32)c1 (centres undefined) | 10.8

Then this compound:
Item: CC(C)(C)c1ccc(O)c(C2(c3cc(C(C)(C)C)ccc3OCCN3CCCC3)C(=O)N(CCN3CCCC3)c3ccccc32)c1 (centres undefined) | System: Interferon-induced, double-stranded RNA-activated protein kinase (Homo sapiens) | fold change (FC): 9.09

====

In this section we review reported fold change (FC) values for a set of molecules.
target: Interferon-induced, double-stranded RNA-activated protein kinase (Homo sapiens) (UniProt P19525); assay: Induction of eIF2alpha phosphorylation (unknown origin) assessed as fold increase in ATF-4 stimulation at 10 uM by dual luciferase reporter assay; conditions: filed as activator
Sequence (P19525 whole entry): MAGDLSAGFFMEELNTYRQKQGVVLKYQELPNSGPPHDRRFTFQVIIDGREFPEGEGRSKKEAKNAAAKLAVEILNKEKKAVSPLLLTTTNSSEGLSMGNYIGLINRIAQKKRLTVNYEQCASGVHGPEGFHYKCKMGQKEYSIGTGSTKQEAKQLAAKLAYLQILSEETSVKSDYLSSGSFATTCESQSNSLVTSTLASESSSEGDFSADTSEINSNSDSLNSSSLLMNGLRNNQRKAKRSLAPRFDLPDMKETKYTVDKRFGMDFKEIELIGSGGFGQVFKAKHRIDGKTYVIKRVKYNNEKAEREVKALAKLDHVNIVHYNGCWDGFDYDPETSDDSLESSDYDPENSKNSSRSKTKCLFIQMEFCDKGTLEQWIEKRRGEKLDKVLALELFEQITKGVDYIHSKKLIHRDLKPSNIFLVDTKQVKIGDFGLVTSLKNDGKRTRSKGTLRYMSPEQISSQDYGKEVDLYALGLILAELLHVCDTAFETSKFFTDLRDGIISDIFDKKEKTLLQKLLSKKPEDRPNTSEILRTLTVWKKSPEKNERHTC
Just the number, please.

These solved cases illustrate the format of a correct answer.
* CC(C)(C)c1ccc(O)c(C2(c3cc(C(C)(C)C)ccc3O)C(=O)Nc3ccccc32)c1 | 5.2
* CN1CCN(CCOc2ccc(C(C)(C)C)cc2C2(c3cc(C(C)(C)C)ccc3OCCN3CCN(C)CC3)C(=O)N(CCN3CCN(C)CC3)c3ccccc32)CC1 | 6.73
* CN1CCN(CCOc2ccc(C(C)(C)C)cc2C2(c3cc(C(C)(C)C)ccc3OCCN3CCN(C)CC3)C(=O)Nc3ccccc32)CC1 | 9.7
* CN(C)CCOc1ccc(C(C)(C)C)cc1C1(c2cc(C(C)(C)C)ccc2O)C(=O)N(CCN(C)C)c2ccccc21 (stereo unspecified) | 14.3
* CN(C)CCN1C(=O)C(c2cc(C(C)(C)C)ccc2O)(c2cc(C(C)(C)C)ccc2OCCN2CCCC2)c2ccccc21 (stereo unspecified) | 9.08

Then this molecule:
Value of fold change (FC) reported for the molecule CC(C)(C)c1ccc(O)c(C2(c3cc(C(C)(C)C)ccc3OCCN3CCCC3)C(=O)Nc3ccccc32)c1 (stereo unspecified) is 2.73
